Source listed as the RNAGym collection of RNA variant scans (doi:10.1101/gad.245936.114).

B1: tRNA (parent)
chain: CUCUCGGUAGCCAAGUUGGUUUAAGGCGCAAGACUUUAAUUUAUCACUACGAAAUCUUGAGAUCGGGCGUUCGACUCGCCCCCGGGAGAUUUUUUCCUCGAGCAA

- Variants of: B1
- Experiment Description: nonsense suppression (GFP-seq) (ratio to wild type); higher = more function; SUP4oc tRNA, yeast GFP reporter sort-seq
Variants at the floor of the assay were thinned out.
Experimental Endpoint: nonsense suppression

Recorded results for 6 variants are shown here.
Record request: nonsense suppression value, item C3U C12G
≤ 0.026

Record request: nonsense suppression value, item U8G A13G G61C C68G C82G
≤ 0.026

Record request: nonsense suppression value, item U4G A23C G26U A62U G69C G84U
0.116

Record request: nonsense suppression value, item G7A A24U C75U G78C
≤ 0.026

Record request: nonsense suppression value, item C27U U55C C56A G88U
≤ 0.026

Record request: nonsense suppression value, item U57A C81G A89G
≤ 0.026

Now look at this entry.
Record request: nonsense suppression value, item A24C G67U
0.0289
